B1: ZBTB22 (parent)
chain: RPFDCPVCNKKFKMKHHLTEHMKT

# Variants of: B1
# Assay: protein stability index of a GFP-peptide fusion (GPS, HEK-293T) (PSI 1-6); higher = more stable;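 also: lentivirally expressed fusions sorted by FACS into six bins by GFP to DsRed ratio, PSI derived from sequencing read proportions per bin multiplied by bin number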
# Recorded conditions: c terminus: a fixed tail appended
Known protein stability index of a selection of variants

Variant label | protein stability index
T24F | 2.46
P6G | 2.1
R1H | 2.88
F3M | 2.45
K13N | 2.29
K11I | 2.36
